Please find below IC50 measurements for Histamine H1 receptor (Homo sapiens), combined from several publications.
Reply numerically in nM, unit not repeated.

Return reported IC50; argument: `Cc1cccc(C(=O)N[C@H]2CC[C@@H](Nc3ncc(C)c(N(C)C)n3)CC2)c1` 1600

Also check COC1Cc2ccccc2C2(CCN(CCCc3ccccc3)CC2)O1 (stereo unspecified) 8000

Also check `Cc1ccc(C(=O)N[C@H]2CC[C@@H](Nc3ncc(C)c(N(C)C)n3)CC2)cc1` 170

Also check `O=c1n(CCCCN2CCN(c3cccc4sccc34)CC2)nc2ccccn12` 88.5

Next:
Return reported IC50; argument: `N#Cc1ccc2nn(CCCCN3CCN(c4cccc5sccc45)CC3)c(=O)n2c1` 76.6

Also check `Cc1cnc(N[C@H]2CC[C@@H](CNC(=O)c3ccc(F)c(F)c3)CC2)nc1N(C)C` 920

Also check `c1nc(CCCCCCCCCCN2CCCC2)c[nH]1` 398

Also check `Cc1cnc(N[C@H]2CC[C@@H](NC(=O)c3ccc(Cl)cc3)CC2)nc1N(C)C` 760

Also check `NCCCCCCCCc1cnc[nH]1` 3160

Also check `NCCCCCCCCCCCc1cnc[nH]1` 251

Also check `NCCCCCCCCCc1ccccn1` 7940
